# subjectOfTest: recombinant human 11β-HSD type 1 enzyme (Homo sapiens, UniProt P28845)
# Sequence (P28845 whole entry): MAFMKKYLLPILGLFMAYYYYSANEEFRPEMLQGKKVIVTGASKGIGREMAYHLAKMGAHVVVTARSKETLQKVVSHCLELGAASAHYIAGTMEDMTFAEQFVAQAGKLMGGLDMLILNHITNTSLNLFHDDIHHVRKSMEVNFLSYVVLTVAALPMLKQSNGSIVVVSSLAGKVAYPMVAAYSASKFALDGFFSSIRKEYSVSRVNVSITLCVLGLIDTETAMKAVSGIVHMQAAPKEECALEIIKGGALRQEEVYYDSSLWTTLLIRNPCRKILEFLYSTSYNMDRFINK
# protocolDescription: 11β-HSD Type 1 Enzyme Assay (NADPH fluorescence)
# assaySetup: three hour incubation at room temperature, read-out: Human 11-βHSD1 IC50
property: pIC50
Keep in mind that pIC50 stands for -log10 of concentration in molar terms.

INPUT: I would be grateful if you could share the reported pIC50 for `O=C(c1ccc(-c2cc(Cl)c(C[C@@H]3CCN(C4CCC(F)(F)CC4)C3=O)c(Cl)c2)cc1)N1CCS(=O)(=O)CC1` .
OUTPUT: 6.42

INPUT: I would be grateful if you could share the reported pIC50 for `O=C(c1ccc(-c2cc(Cl)c(C[C@@H]3CCN([C@H]4CC[C@@H](F)CC4)C3=O)c(Cl)c2)cc1)N1CCC(C(F)(F)F)CC1` .
OUTPUT: 6.23

INPUT: I would be grateful if you could share the reported pIC50 for `O=C(c1ccc(-c2cc(Cl)c(C[C@@H]3CCN(C4CCC(F)(F)CC4)C3=O)c(Cl)c2)cc1)N1CCC(C(F)(F)F)CC1` .
OUTPUT: 6.16

###

# subjectOfTest: 11β-HSD1 in primary human aortic smooth muscle cells (AoSMC) (Homo sapiens, UniProt P28845)
# Construct: containing 12 ng/mL hTNFα to induce expression of 11β-HSD1; endogenous in cells; host or cells: primary human aortic smooth muscle cells (AoSMC), induced with hTNFα
# Sequence (P28845 whole entry): as above
# protocolDescription: Human Aortic Smooth Muscle Cell Assay (cortisone to cortisol conversion)
# Format: cell-based
# assaySetup: AoSMC induced with hTNFα; cortisol measured after 16 hours with cortisone
Known IC50 of a selection of compounds
Answer format: number, then unit.

INPUT: I would be grateful if you could share the reported IC50 for `O=C(c1ccc(-c2cc(Cl)c(C[C@@H]3CCN(C4CCC(F)(F)CC4)C3=O)c(Cl)c2)cc1)N1CCC(C(F)(F)F)CC1` .
OUTPUT: 0.0551 µM

Consider now this further compound.
INPUT: I would be grateful if you could share the reported IC50 for `O=C(c1ccc(-c2cc(Cl)c(C[C@@H]3CCN([C@H]4CC[C@@H](F)CC4)C3=O)c(Cl)c2)cc1)N1CCC(C(F)(F)F)CC1` .
OUTPUT: 0.0055 µM
